This collection of values is drawn from paper PMC5048595.

# system-tested: T1, hPolη (human DNA polymerase eta) (Homo sapiens, UniProt Q9Y253 1-713)
# T1 sequence: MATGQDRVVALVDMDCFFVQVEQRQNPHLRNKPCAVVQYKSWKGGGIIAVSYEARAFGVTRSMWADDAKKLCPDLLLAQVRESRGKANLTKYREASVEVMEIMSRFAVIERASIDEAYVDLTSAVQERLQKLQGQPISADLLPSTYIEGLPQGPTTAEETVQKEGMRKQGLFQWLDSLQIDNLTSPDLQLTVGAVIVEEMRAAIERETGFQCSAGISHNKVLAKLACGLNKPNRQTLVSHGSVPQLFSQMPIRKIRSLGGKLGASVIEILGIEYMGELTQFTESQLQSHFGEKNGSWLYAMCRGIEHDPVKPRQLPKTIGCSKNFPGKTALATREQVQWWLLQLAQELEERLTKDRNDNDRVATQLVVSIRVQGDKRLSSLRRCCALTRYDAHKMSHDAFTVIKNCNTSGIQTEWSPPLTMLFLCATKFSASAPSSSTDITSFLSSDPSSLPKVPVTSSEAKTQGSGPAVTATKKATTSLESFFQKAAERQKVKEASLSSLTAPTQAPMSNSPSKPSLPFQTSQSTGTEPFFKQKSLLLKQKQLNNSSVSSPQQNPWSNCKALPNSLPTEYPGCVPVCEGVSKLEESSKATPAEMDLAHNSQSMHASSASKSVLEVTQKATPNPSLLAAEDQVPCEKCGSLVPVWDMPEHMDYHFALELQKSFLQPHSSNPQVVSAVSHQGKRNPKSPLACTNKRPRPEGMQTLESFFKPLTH
# test-name: EMSA
What pKd was measured for each of the following?
One number for each entry, as −log10 of the molar value.

binder="22/26-mer-dGC8-N-ABA (dsDNA, template dG at position 21 from 3' end (6 from 5' end) is N-(2'-deoxyguanosin-8-yl)-3-aminobenzanthrone) DNA 1: AACGACGGCCAGTGAATTCGCG DNA 2: CCCGCGCGAATTCACTGGCCGTCGTT" observed_value=7.62
binder="21/26-mer-dGC8-N-ABA (dsDNA, template dG at position 21 from 3' end (6 from 5' end) is N-(2'-deoxyguanosin-8-yl)-3-aminobenzanthrone) DNA 1: AACGACGGCCAGTGAATTCGC DNA 2: CCCGCGCGAATTCACTGGCCGTCGTT" observed_value=7.59

Next item in the queue.
Provide pKd value for the following binder: 18/26-mer-dGC8-N-ABA (dsDNA, template dG at position 21 from 3' end (6 from 5' end) is N-(2'-deoxyguanosin-8-yl)-3-aminobenzanthrone) DNA 1: AACGACGGCCAGTGAATT DNA 2: CCCGCGCGAATTCACTGGCCGTCGTT
7.49
